Molecular target: Peroxisome proliferator-activated receptor alpha (Homo sapiens, UniProt Q07869)
Experimental Readout: IC50

Record excerpt, results attached:
Any idea what IC50 was measured for CCc1cc(Oc2cc(F)cc([C@@H](C)NC(=O)c3sc4ccc(Cl)cc4c3C)c2)ccc1CCC(=O)O ?
9.34 µM

Any idea what IC50 was measured for Cc1cc(Oc2cccc(CNC(=O)c3cc4cc(Cl)ccc4n3C)c2)ccc1CCC(=O)O ?
> 10 µM

Any idea what IC50 was measured for Cc1cc(Oc2cccc(CNC(=O)c3ccc(C(F)(F)F)cc3C)c2)ccc1CCC(=O)O ?
> 10 µM

Any idea what IC50 was measured for Cc1cc(Oc2cccc(CNC(=O)c3c(C)c4cc(Cl)ccc4n3C)c2)ccc1CCC(=O)O ?
> 10 µM

Shifting focus to the compound that follows.
Any idea what IC50 was measured for CCc1cc(Oc2cc(F)cc([C@@H](C)NC(=O)c3c(C)c4cc(Cl)ccc4n3C)c2)ccc1CCC(=O)O ?
10.3 µM

* * *

Molecular target: Peroxisome proliferator-activated receptor alpha (Homo sapiens)
Sequence (Q07869 whole entry): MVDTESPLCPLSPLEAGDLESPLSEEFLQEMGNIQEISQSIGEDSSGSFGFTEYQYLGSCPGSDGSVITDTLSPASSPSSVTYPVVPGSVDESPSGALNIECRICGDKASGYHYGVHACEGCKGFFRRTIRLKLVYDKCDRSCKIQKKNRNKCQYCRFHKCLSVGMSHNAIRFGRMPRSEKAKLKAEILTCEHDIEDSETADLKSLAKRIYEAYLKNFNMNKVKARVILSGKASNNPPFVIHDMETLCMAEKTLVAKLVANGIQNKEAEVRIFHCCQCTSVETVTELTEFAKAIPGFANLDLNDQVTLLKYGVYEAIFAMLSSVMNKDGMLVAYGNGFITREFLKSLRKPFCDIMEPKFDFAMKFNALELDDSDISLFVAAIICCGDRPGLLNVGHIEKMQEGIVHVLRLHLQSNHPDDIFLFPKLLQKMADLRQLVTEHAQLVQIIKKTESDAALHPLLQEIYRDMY
// EC50 lookup, one value per entry
Response body: numeric value in µM, unit text excluded.

Any idea what EC50 was measured for Cc1cc(Oc2cccc(CNC(=O)c3c(C)c4cc(Cl)ccc4n3C)c2)ccc1CCC(=O)O ?
2.65

Any idea what EC50 was measured for Cc1cc(Oc2cccc(CNC(=O)c3ccc(C(F)(F)F)cc3C)c2)ccc1CCC(=O)O ?
2.89

Any idea what EC50 was measured for CCc1cc(Oc2cc(F)cc([C@@H](C)NC(=O)c3c(C)c4cc(Cl)ccc4n3C)c2)ccc1CCC(=O)O ?
2.82

More entries:
Any idea what EC50 was measured for Cc1cc(Oc2cccc(CNC(=O)c3cc4cc(Cl)ccc4n3C)c2)ccc1CCC(=O)O ?
2.74

* * *

Molecular target: Peroxisome proliferator-activated receptor delta (Homo sapiens)
Sequence (Q03181 whole entry): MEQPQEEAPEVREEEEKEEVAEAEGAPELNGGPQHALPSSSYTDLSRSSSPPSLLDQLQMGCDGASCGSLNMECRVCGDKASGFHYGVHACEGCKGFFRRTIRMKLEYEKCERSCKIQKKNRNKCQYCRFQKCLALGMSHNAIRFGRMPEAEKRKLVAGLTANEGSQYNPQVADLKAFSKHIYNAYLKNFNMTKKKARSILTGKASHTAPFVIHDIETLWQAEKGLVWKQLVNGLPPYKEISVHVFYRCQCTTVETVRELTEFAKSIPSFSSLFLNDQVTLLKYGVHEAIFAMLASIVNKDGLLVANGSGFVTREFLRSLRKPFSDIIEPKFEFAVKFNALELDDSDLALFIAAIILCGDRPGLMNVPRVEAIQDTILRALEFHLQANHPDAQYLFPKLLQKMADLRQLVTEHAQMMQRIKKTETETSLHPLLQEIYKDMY
Experimental Readout: EC50 (nM)
Response body: numeric value in nM, unit text excluded.

Record excerpt, results attached:
Recorded EC50 for Cc1cc(Oc2cccc(CNC(=O)c3c(C)c4cc(Cl)ccc4n3C)c2)ccc1CCC(=O)O with Peroxisome proliferator-activated receptor delta (Homo sapiens), please?
4

Recorded EC50 for Cc1cc(Oc2cccc(CNC(=O)c3cc4cc(Cl)ccc4n3C)c2)ccc1CCC(=O)O with Peroxisome proliferator-activated receptor delta (Homo sapiens), please?
87

Shifting focus to the compound that follows.
Recorded EC50 for Cc1cc(Oc2cccc(CNC(=O)c3ccc(C(F)(F)F)cc3C)c2)ccc1CCC(=O)O with Peroxisome proliferator-activated receptor delta (Homo sapiens), please?
33
